# System: SNB-19 CNS
# test.details: NCI-60 one-dose screen, 48 h
# settings: 10 µM unless noted
The panel holds about 83,000 compounds, 20% with a hit somewhere; the sample as a whole holds those more often. Calls of active or inactive are those of the source. The calls were made as follows: active = growth percent below 10; inactive = the rest.
Valid outcomes are listed here; reply with one: active, inactive

Worked cases, answers included:
compound | cat
COc1ccc(-c2cc(=O)c3c(OC)c4ccoc4c(/C=C/C=O)c3o2)cc1 | inactive
O=C(Nc1ccc(N2CCNCC2)cc1)c1[nH]ncc1Nc1ncnc2sc3c(c12)CCC3 | active
COc1ccc(Cn2cc(Cn3cc(C=C4C(=O)NC(=O)NC4=O)c4ccccc43)nn2)cc1 | inactive
O=C(Nc1ccc(Cl)cc1F)c1cc(Br)ccc1O | inactive
Cc1cccc2c(=O)c3c(sc12)c(NCCCNCCO)nc1ccccc13 | inactive

Ask: Query: recorded result category for C#CCn1cc(C=C2C(=O)NC(=O)NC2=O)c2cc(Cl)ccc21 in this test
Result: inactive

Ask: Which outcome did this test record for the compound NCCNc1nc2ccccc2c2c(=O)c3cc(F)cc(Cl)c3sc12 ?
Result: inactive

Ask: GET /call?item= CC(C)CCNCC(O)Cn1c2ccccc2c2ccccc21 (stereo unspecified) returns the recorded outcome of this test.
Result: inactive
